I'd be grateful if you could share measured Avg OD for these entries.
molecular target: GPNMB-V5His (recombinant human GPNMB extracellular domain with C-terminal V5-His tag) (human) (UniProt Q14956); assay: ELISA, coated GPNMB, Ab 12.3 ng/mL
Answers are plain numbers, in OD.

binder	unit descriptor	Avg OD
2-15 (hybridoma of Table 6) (antibody, V domains shown) VH: QVQLVESGGGVVQPGRSLRLSCAASGFTFSNYGIHWVRQAPGKGLEWVAVIWFDGRNKYYADSVKGRFTISRDNSKNTLYLQMNSLRAEDAAVYYCARDPFDYGDSFFDYWGQGTLVTVSS VL: LTQSPSSLSASVRDRVTITCRASQDISNYLAWYQQKPGKVPNLLIYAASTLQSGVPSRFSGSGSGTDFTLTISSLQPEDVATYYCQKYNSAPLTFGGGTKVEIKR	OD	0.127
Mab1.2.2 (antibody, human IgG2, V domains shown) VH: ITLKESGPTLVKPTQTLTLTCTFSGFSLSAGGVGVGWIRQPPGKALEWLALIYWNDDKRYSPSLRSRLTITKDTSKNQVVLTITNMDPVDTATYYCAHSHYDYDWGSYFDYWGQGTLVTVSS VL: DIVMTQTPLSLPVTPGEPASISCRSSQSLLDSDDGNTYLDWYLQKPGQSPQLLIYTLSYRASGVPDRFSGSGSGTDFTLNISRVEAEDVGVYYCMQRIEFPITFGQGTRLEIKR	OD	0.049

Pending binder:
INPUT: Suppose we examine the binder 2-22 (hybridoma of Table 6) (antibody, V domains shown) VH: QVQLEQSGPGLVKPSQNLSLTCTVSGGSISSGGYFWSWIRQHPGKGLEWIGYIYYSGNTYYNPSLKSRVTISVDTSKNQFSLKLSSVTAADTAVYYCARDYYYDTSGFSYRYDWYYGMDVWGQGTTVTVSS VL: DIQLTQSPSSLSASVGDRVTITCRASQGIRNDLGWYQQKPGKAPKRLIYAASSLQNGVPSRFSGSGSGTEFTLTISSLQPEDFATYYCLQHNTYPAFGQGTKVEIKR ; what Avg OD value has been reported?
OUTPUT: 0.068
